# measurement-description: HRP/luminol detection interference without ALR, dose response, artefact control for ALR inhibitor project, biochemical, luminescence, no ALR or DTT, cherry-pick (AID 540356)
# condition-set: HRP/H2O2 luminol luminescence counterscreen; series mostly up to 10 µM
The campaign covered roughly 2,500 compounds. About 360 (14%) were called active.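 The calls were made as follows: active = signal-lowering compounds whose fitted half-maximal concentration AC50 is no higher than ten times their top tested concentration; inconclusive = flat curve with 30 to 70% inhibition, or poor fit; inactive = flat within 30%, signal increase, or AC50 above limit.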 These entries were drawn from the full list.
Outcomes: class 1 for active, class 0 for inactive

structure-string	group
C/C(=N\Nc1nc2ccccc2[nH]1)c1ccc2c(c1)OCO2	class 0
COc1cc(/C=N/NC(=O)c2cccc(NC(=O)c3ccccc3)c2)ccc1O	class 0
c1ccc(-c2cc(N3CCCCCC3)n[nH]2)cc1	class 0
CNc1nnc(CSc2nc3ccccc3s2)s1	class 0
CCCCCCCc1c(C#N)c(N)[nH]c(=S)c1C#N	class 0
NNC(=O)c1ccc(O)cc1O	class 0
CN(C)c1ccc(NC(=O)CN2CCc3ccccc3C2)cc1	class 0
Cc1[nH]c2ccccc2c1N=Nc1cccc(C(=O)O)c1	class 0
O=C(O)Cn1cc(C(=S)N2CCCCC2)c2ccccc21	class 0
Cc1cc(C)nc(NNC(=O)c2ccccc2O)n1	class 0
NNC(=O)CCc1nc2ccc(O)cc2[nH]1	class 1
Oc1c(Cl)cc(Cl)cc1CNc1ccc(Br)cn1	class 0
NC(=O)c1ccc(CSc2nc3ccccc3s2)cc1	class 0

###

# measurement-description: HRP/luminol detection interference without ALR, dose response, artefact control for ALR inhibitor project, biochemical, luminescence, no ALR or DTT, cherry-pick (AID 540356)
# condition-set: HRP/H2O2 luminol luminescence counterscreen; series mostly up to 10 µM
Out of some 2,500 compounds screened, about 360 (14%) were called active.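 Rule for the calls: active = signal-lowering compounds whose fitted half-maximal concentration AC50 is no higher than ten times their top tested concentration; inconclusive = flat curve with 30 to 70% inhibition, or poor fit; inactive = flat within 30%, signal increase, or AC50 above limit.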 The list is a sample of the results.
Outcomes: 1 for active, 0 for inactive

compound	group
Oc1cc2c(cc1O)C(c1ccccc1)CNCC2 (configuration not stated)	1
CCc1ccc(CNc2ccc(N3CCN(C(C)=O)CC3)cc2)cc1	0
Nc1nc(-c2c[nH]c3ccccc23)cs1	0
COC(=O)Nc1ccc(S(=O)(=O)N2CCC(C(=O)N(C)C3CCCCC3)CC2)cc1	0
CCn1c(-c2ccccc2O)n[nH]c1=S	0
O=c1oc2ccccc2cc1-c1ccc(O)cc1	0
CC(=O)N1CCN(c2ccc(NCc3ccccc3)cc2)CC1	1
O=C(NCC(c1cccnc1)N1CCN(c2ccc(F)cc2)CC1)c1ccco1 (configuration not stated)	0
Oc1ccc(C2CNCCc3c2cc(O)c(O)c3Cl)cc1 (configuration not stated)	1
CC(NC(=O)C(=O)N1CCCCC1)C(c1cccs1)N1CCN(c2ccc(F)cc2)CC1 (configuration not stated)	0
CCN(CCNS(=O)(=O)c1ccc2[nH]c(=O)sc2c1)c1ccccc1	0
Oc1ccc(Br)cc1-c1cc(-c2ccco2)[nH]n1	0

###

# measurement-description: HRP/luminol detection interference without ALR, dose response, artefact control for ALR inhibitor project, biochemical, luminescence, no ALR or DTT, cherry-pick (AID 540356)
# condition-set: HRP/H2O2 luminol luminescence counterscreen; series mostly up to 10 µM
In all, about 2,500 compounds went through this assay and about 360 (14%) were called active.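 Rule for the calls: active = signal-lowering compounds whose fitted half-maximal concentration AC50 is no higher than ten times their top tested concentration; inconclusive = flat curve with 30 to 70% inhibition, or poor fit; inactive = flat within 30%, signal increase, or AC50 above limit.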 Not all results are given here.
Outcomes: True = active, False = inactive

compound	group
COc1cc(/C=N/Nc2ccccc2)ccc1O	False
CC(c1ccc(F)cc1)n1c(-c2cccs2)n[nH]c1=S (stereo not drawn)	False
Cc1ccc2c(C)c(C(=O)Nc3ccc(S(=O)(=O)Nc4onc(C)c4C)cc3)oc2c1	False
Cc1ccc(-c2n[nH]c(=S)n2/N=C/c2c(C)[nH]n(-c3ccccc3)c2=O)cc1	False
COc1ccc(-n2c(-c3ccc(OC)c(OC)c3)n[nH]c2=S)cc1	False
O=c1cc(-c2ccccc2)[nH]c2[nH]n(-c3ccccc3)c(=O)c12	False
CCn1c(/C=C/c2ccc(O)cc2)nc2ccccc2c1=O	False
S=c1nccc(-c2cccs2)[nH]1	True
O=C(O)CCc1ccc(-c2cccs2)n1NC(=O)c1cccs1	False
O=c1[nH]c(/C=C\c2ccccc2F)nc(O)c1[N+](=O)[O-]	False
Oc1ccc(/C=N/n2c(COc3ccccc3)n[nH]c2=S)cc1O	False
COc1cc(/C(C)=N/NC(=O)Cc2c(C)[nH][nH]c2=O)ccc1O	True
COc1cc(/C=N/NC(=O)C2C3CCCCC32C)cc(Br)c1O (stereo not drawn)	False
COc1ccc(N2CCN(C(=O)CCNC(=O)c3ccc(C(C)(C)C)cc3)CC2)cc1	False
CCN(CC)c1ccc(NC(=O)CN2CCN(c3ccc(F)cc3)CC2)cc1	False
CCCn1cnc2cc(NCc3ccccc3O)ccc21	False
COC(=O)C1C(C(C)C)N(c2ccccc2)OC1(C)O (stereo not drawn)	False
O=C(O)c1ccc(CSc2nc3ccc(NC(=O)c4ccccc4C(=O)O)cc3s2)cc1	False
Nc1cccc(/C=C/c2ccncc2)c1	False
N#CC1=C(N)n2c(s/c(=C\c3cccs3)c2=O)=C(C#N)C1c1cccs1 (stereo not drawn)	False
Nc1ncc(Br)cc1S(=O)(=O)NCCC(=O)N1CCN(c2ccccc2)CC1	False
CCN(CC)c1ccc(NC(=O)CN2CCN(c3nc(C)cc(C)n3)CC2)cc1	False
O=c1[nH]c(/C=C\c2cccc(Cl)c2)nc(O)c1[N+](=O)[O-]	False

###

# measurement-description: HRP/luminol detection interference without ALR, dose response, artefact control for ALR inhibitor project, biochemical, luminescence, no ALR or DTT, cherry-pick (AID 540356)
# condition-set: HRP/H2O2 luminol luminescence counterscreen; series mostly up to 10 µM
Hit rate of the full screen: of about 2,500 compounds, about 360 (14%) were called active.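 The calls were made as follows: active = signal-lowering compounds whose fitted half-maximal concentration AC50 is no higher than ten times their top tested concentration; inconclusive = flat curve with 30 to 70% inhibition, or poor fit; inactive = flat within 30%, signal increase, or AC50 above limit.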 These entries were drawn from the full list.
Outcomes: 1 (yes) = active, 0 (no) = inactive

structure-string	group
COc1ccc(OC)c(N(CC(N)=O)S(=O)(=O)c2ccc(OC)c(OC)c2)c1	0 (no)
COc1ccc2nc(N3CCCC3)[nH]c2c1	0 (no)
Cc1cc(O)c(Sc2ncn[nH]2)cc1NS(=O)(=O)c1ccc(Cl)cc1	0 (no)
CNc1nnc(-c2cccc(N(C)C)c2)s1	1 (yes)
Cc1cc(C(=O)Nc2nnc(-c3ccccc3)s2)no1	0 (no)
CN(CCCNC(=O)c1cccc(N2CCCC2=O)c1)c1ccccc1	0 (no)
Cc1cc(C)n2nc(C(=O)N/N=C/c3ccc(O)cc3)nc2n1	0 (no)
Cc1ccc(S(=O)(=O)Nc2cc(C)c(O)cc2C)cc1	0 (no)
CN(CC(=O)N1CCN(c2ccccc2)CC1)S(=O)(=O)c1cnc[nH]1	0 (no)
C/C(=N\NC(=O)c1cccc(N/N=C(\C)c2ccncc2)c1)c1ccncc1	0 (no)
COc1ccc(C)cc1NC(=O)c1cc2c(CO)cnc(C)c2oc1=N	0 (no)

###

# measurement-description: HRP/luminol detection interference without ALR, dose response, artefact control for ALR inhibitor project, biochemical, luminescence, no ALR or DTT, cherry-pick (AID 540356)
# condition-set: HRP/H2O2 luminol luminescence counterscreen; series mostly up to 10 µM
The campaign covered roughly 2,500 compounds. About 360 (14%) were called active.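 How the source made its calls: active means signal-lowering compounds whose fitted half-maximal concentration AC50 is no higher than ten times their top tested concentration; inconclusive means flat curve with 30 to 70% inhibition, or poor fit; inactive means flat within 30%, signal increase, or AC50 above limit.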 These entries were drawn from the full list.
Outcomes: active, inactive

compound	group
CC[C@@H](C)[C@H](NC(=O)Cc1c(C)c2cc3c(C)coc3c(C)c2oc1=O)C(=O)O	inactive
Cc1ccc(C(=O)NCCSc2snnc2C)cc1	inactive
S=c1nc(-c2cccc(Cl)c2)[nH][nH]1	inactive
CN(C)S(=O)(=O)c1cccc(-c2cn3cccnc3n2)c1	inactive
Oc1ccc(O)c(-c2cnns2)c1	active
COc1cc(/C=C2\CCCc3c2nc2ccccc2c3C(=O)O)cc(Br)c1O	inactive
O=c1ccc(-c2n[nH]c(=S)n2-c2ccc(F)c(Cl)c2)n[nH]1	inactive
ClCc1csc(-c2ccc(Cl)cc2)n1	inactive
S=c1nc(-c2cc(Cl)cc(Cl)c2)[nH][nH]1	inactive
CC(=O)N/N=C/c1cc(C)n(-c2ccc(Br)cc2)c1C	inactive
Cc1nnc2sc(SCc3cccc(Cl)c3)nn2c1=O	inactive
Clc1nnc(N2CCCCC2)c2ccccc12	inactive
O=C(NC1CCCCC1)N1CCN(c2ccc(Cl)cc2)CC1	inactive
Cc1cccc2nc(-c3cccnc3)c(Nc3ccccc3)n12	inactive
Cc1nc(-c2cccc(N)c2)cs1	inactive
N/C(=N/O)c1ccccc1N1CCC(Cc2ccccc2)CC1	inactive
Cc1cccc(N2CCN(C(=O)C3CCCN(S(=O)(=O)c4cnc[nH]4)C3)CC2C)c1 (stereo not given)	inactive
CC1(CCC(=O)N2CCCC(Nc3ccc(F)cc3)C2)CC1 (stereo not given)	inactive
COc1ccc(S(=O)(=O)N/N=C(/C)c2ccncc2)c(OC)c1	inactive
COc1ccc(/C=N/NC(=O)c2ccncc2)cc1CN1CCN(c2ccc(F)cc2)CC1	inactive
O=C(CN1C(=O)CCC1=O)NNc1ccc2ccccc2c1	active
C=CCn1c(C(C)NC(=O)c2cccc(C)c2)n[nH]c1=S (stereo not given)	inactive
CN(C)c1ccc(/C=N/Nc2ccc(-n3ccnc3)nn2)cc1	inactive
CC(C)(C)c1ccc(Oc2ccc(NC(=O)CCCC(=O)O)cn2)cc1	inactive
O=C1CCC(=O)N1CNc1ccc(Oc2ccccc2)cc1	inactive
